assay overview: Compatibility with polyethylene sheets (efflorescence at room temperature)
Assay type: physicochemical
conditions used: 0.1 part in 100 parts polyethylene, 1 mm sheets
measured quantity: Compatibility 0.1% (number of days over which no efflorescence phenomena are detectable) (days)

{"columns": ["structure smiles", "test result"],
 "data": [
  ["CCCCCCCCCCCCCCCCCCN1C(=O)C2(CCCCC2)NC12CCCCC2", 200],
  ["CCCCCCCCOC(=O)CN1C(=O)C2(CCCCC2)NC12CCCCC2", 200],
  ["CCCCCCCCN1C(=O)C2(CCCCC2)NC12CCCCC2", 200],
  ["C=CCN1C(=O)C2(CCCCC2)NC12CCCCC2", 200]
]}

---

assay overview: Solubility in polyethylene sheets (visual examination for undissolved constituents)
Type: physicochemical
conditions used: 0.3 part in 100 parts polyethylene (density 0.917), 1 mm sheets
Description: 100 Parts of polyethylene having a density of 0.917 are homogeneously mixed in a Brabender plastograph with 0.1 and 0.3 parts, respectively, of a light-stabilising agent of formula I at 180°C for 10 minutes. The resulting mixture is moulded in a platen press at 170°C to give 1 mm thick sheets, and these are then examined visually for undissolved constituents. The sheets are suspended at room temperature and periodically examined for efflorescence phenomena.
measured quantity: Solubility 0.3%

{"columns": ["structure smiles", "measured quantity", "test result"],
 "data": [
  ["CCCCCCCCCCCCCCCCCCN1C(=O)C2(CCCCC2)NC12CCCCC2", "Solubility 0.3%", "dissolv."],
  ["CCCCCCCCN1C(=O)C2(CCCCC2)NC12CCCCC2", "Solubility 0.3%", "dissolv."],
  ["C=CCN1C(=O)C2(CCCCC2)NC12CCCCC2", "Solubility 0.3%", "dissolv."],
  ["CCCCCCCCOC(=O)CN1C(=O)C2(CCCCC2)NC12CCCCC2", "Solubility 0.3%", "dissolv."]
]}
